Kd tested on JAK3 (Homo sapiens, UniProt P52333): recorded values
Sequence (P52333 whole entry): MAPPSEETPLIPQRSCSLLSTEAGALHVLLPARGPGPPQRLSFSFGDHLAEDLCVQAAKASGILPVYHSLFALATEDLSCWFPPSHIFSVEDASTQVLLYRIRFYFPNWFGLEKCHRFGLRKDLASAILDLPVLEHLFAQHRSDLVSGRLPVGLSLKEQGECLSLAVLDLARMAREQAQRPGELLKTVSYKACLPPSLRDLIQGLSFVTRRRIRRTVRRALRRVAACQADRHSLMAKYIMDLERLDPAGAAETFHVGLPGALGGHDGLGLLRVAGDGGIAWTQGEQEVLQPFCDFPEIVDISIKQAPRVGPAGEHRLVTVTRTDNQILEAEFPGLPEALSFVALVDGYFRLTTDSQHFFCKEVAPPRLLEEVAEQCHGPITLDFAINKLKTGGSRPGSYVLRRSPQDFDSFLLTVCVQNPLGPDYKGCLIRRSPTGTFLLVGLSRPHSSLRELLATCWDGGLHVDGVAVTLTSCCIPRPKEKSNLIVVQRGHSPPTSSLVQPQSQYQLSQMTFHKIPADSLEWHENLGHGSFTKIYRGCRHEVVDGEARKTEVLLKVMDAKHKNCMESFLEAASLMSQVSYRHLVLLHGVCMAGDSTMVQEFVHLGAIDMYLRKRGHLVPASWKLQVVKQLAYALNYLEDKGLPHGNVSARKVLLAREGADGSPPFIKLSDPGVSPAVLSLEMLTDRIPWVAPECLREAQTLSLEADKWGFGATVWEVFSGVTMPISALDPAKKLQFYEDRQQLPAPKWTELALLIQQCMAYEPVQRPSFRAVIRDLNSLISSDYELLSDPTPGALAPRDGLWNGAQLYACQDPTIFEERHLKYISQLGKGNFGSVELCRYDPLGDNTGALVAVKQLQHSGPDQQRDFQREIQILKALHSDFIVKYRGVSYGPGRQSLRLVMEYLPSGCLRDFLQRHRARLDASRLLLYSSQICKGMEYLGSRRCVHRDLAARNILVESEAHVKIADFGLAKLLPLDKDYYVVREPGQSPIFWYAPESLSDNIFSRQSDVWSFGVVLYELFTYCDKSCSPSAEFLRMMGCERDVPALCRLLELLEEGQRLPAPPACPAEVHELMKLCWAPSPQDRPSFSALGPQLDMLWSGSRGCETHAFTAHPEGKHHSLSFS

[in] Under JAK3 (Homo sapiens, UniProt P52333), report Kd for Cc1cc(Nc2nc(C(F)(F)c3ccc(F)cn3)nc3c(O)cccc23)n[nH]1
[out] ≤ 10 nM

[in] Under JAK3 (Homo sapiens, UniProt P52333), report Kd for Cc1cc(Nc2nc(C(F)(F)c3ccc(F)cn3)nc3c(C)cccc23)n[nH]1
[out] ≤ 10 nM

[in] Under JAK3 (Homo sapiens, UniProt P52333), report Kd for COc1cccc2c(Nc3cc(C)[nH]n3)nc(C(F)(F)c3ccc(F)cn3)nc12
[out] ≤ 10 nM

[in] Under JAK3 (Homo sapiens, UniProt P52333), report Kd for Cc1cc(Nc2nc(C(F)(F)c3ccc(F)cn3)nc3c(C(=O)NC4COC4)cccc23)n[nH]1
[out] ≤ 10 nM

[in] Under JAK3 (Homo sapiens, UniProt P52333), report Kd for Cc1cc(Nc2nc(C(F)(F)c3ccc(F)cn3)nc3c(OC(F)(F)F)cccc23)n[nH]1
[out] 10 to 100 nM

[in] Under JAK3 (Homo sapiens, UniProt P52333), report Kd for Cc1cc(Nc2nc(C(F)(F)c3ccc(F)cn3)nc3c(C4CC4)cccc23)n[nH]1
[out] 10 to 100 nM

[in] Under JAK3 (Homo sapiens, UniProt P52333), report Kd for COc1ccc2c(Nc3cc(C)[nH]n3)nc(C(F)(F)c3ccc(F)cn3)nc2c1
[out] ≤ 10 nM

[in] Under JAK3 (Homo sapiens, UniProt P52333), report Kd for CC(=O)Nc1cccc2c(Nc3cc(C)[nH]n3)nc(C(F)(F)c3ccc(F)cn3)nc12
[out] ≤ 10 nM

[in] Under JAK3 (Homo sapiens, UniProt P52333), report Kd for Cc1cc(Nc2nc(C(F)(F)c3ncc(F)cn3)nc3ccccc23)n[nH]1
[out] 10 to 100 nM

* * *

# Subject Of Test: JAK2 (Homo sapiens)
# Sequence (O60674 whole entry): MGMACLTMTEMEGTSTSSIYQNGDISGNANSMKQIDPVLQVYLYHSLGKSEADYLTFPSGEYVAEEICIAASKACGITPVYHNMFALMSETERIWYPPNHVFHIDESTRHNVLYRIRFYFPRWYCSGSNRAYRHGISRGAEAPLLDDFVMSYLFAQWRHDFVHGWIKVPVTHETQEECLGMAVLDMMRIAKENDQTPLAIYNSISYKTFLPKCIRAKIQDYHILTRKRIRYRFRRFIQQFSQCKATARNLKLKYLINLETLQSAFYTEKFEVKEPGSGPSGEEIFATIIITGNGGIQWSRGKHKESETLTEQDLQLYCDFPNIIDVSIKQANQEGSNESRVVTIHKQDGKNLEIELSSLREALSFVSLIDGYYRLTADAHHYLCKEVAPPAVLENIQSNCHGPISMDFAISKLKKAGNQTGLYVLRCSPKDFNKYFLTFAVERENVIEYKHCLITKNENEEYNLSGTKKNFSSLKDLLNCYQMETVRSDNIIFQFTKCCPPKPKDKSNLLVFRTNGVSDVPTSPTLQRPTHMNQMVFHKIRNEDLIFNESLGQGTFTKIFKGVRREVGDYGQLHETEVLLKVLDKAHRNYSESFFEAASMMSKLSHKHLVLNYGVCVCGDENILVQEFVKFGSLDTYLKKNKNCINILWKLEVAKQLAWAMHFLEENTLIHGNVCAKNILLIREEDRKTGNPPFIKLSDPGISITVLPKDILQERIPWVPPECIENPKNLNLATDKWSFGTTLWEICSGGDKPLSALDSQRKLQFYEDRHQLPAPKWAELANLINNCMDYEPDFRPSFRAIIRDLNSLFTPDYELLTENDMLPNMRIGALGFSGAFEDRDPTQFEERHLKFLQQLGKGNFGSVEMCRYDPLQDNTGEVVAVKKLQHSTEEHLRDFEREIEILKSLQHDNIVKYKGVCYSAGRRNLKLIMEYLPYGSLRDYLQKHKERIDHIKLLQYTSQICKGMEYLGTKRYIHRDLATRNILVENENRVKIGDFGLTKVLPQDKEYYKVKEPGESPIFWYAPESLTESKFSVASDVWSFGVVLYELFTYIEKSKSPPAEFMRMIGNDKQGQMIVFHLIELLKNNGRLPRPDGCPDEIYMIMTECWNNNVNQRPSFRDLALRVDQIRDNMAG
pKd: −log10 of the molar value.
Property Measured: pKd

[in] Under JAK2 (Homo sapiens), report pKd for Cc1cc(Nc2nc(C(F)(F)c3ccc(F)cn3)nc3c(Br)cccc23)n[nH]1 [Example 11]
[out] ≥ 9.00

[in] Under JAK2 (Homo sapiens), report pKd for CCc1cccc2c(Nc3cc(C)[nH]n3)nc(C(F)(F)c3ccc(F)cn3)nc12 [Example 36]
[out] ≥ 9.00

[in] Under JAK2 (Homo sapiens), report pKd for Fc1ccc(C(F)(F)c2nc(Nc3nc[nH]n3)c3ccccc3n2)nc1 [Example 31]
[out] < 8.00

[in] Under JAK2 (Homo sapiens), report pKd for Cc1cc(Nc2nc(C(F)(F)c3ncc(F)cn3)nc3c(Cl)cccc23)n[nH]1 [Example 40]
[out] ≥ 9.00

* * *

Kd tested on JAK3 (Homo sapiens): recorded values

[in] Under JAK3 (Homo sapiens), report Kd for Fc1ccc(C(F)(F)c2nc(Nc3cc[nH]n3)c3ccccc3n2)nc1
[out] 10 to 100 nM

[in] Under JAK3 (Homo sapiens), report Kd for Cc1cc(Nc2nc(C(F)(F)c3ccc(F)cn3)nc3c(NS(C)(=O)=O)cccc23)n[nH]1
[out] ≤ 10 nM

[in] Under JAK3 (Homo sapiens), report Kd for Cc1cc(Nc2nc(C(F)(F)c3ccc(F)cn3)nc3cc(C(N)=O)ccc23)n[nH]1
[out] ≤ 10 nM

[in] Under JAK3 (Homo sapiens), report Kd for Cc1cc(Nc2nc(C(=O)c3ccc(F)cn3)nc3ccccc23)n[nH]1
[out] 10 to 100 nM

[in] Under JAK3 (Homo sapiens), report Kd for Cc1cc(Nc2nc(C(F)(F)c3ccc(F)cn3)nc3c(C(F)(F)F)cccc23)n[nH]1
[out] > 100 nM

[in] Under JAK3 (Homo sapiens), report Kd for Cc1cc(Nc2nc(C(F)(F)c3ccc(F)cn3)nc3cc(Br)ccc23)n[nH]1
[out] ≤ 10 nM

[in] Under JAK3 (Homo sapiens), report Kd for Cc1cc(Nc2nc(C(F)(F)c3ccc(F)cn3)nc3c(Cl)cccc23)n[nH]1
[out] ≤ 10 nM

[in] Under JAK3 (Homo sapiens), report Kd for Cc1ccc2c(Nc3cc(C)[nH]n3)nc(C(F)(F)c3ccc(F)cn3)nc2c1
[out] ≤ 10 nM
